Values from ChEMBL document CHEMBL3988442

For each of the compounds below, state its Percent Effect.
- Tgt: Arginase-2, mitochondrial (Homo sapiens) (UniProt P78540)
- Sequence (P78540 whole entry): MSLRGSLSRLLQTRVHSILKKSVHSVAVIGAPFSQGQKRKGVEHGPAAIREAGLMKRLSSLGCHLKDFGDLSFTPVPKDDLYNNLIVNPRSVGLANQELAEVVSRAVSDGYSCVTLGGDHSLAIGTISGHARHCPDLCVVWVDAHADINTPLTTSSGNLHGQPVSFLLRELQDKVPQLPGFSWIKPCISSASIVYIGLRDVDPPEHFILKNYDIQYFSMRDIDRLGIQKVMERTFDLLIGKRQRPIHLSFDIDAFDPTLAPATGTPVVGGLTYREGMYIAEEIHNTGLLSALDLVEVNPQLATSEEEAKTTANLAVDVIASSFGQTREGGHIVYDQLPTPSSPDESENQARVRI
- Assay comment: in vitro enzyme assay to detect the production of urea directly proportional to the activity of Arginase II
- Type: functional
- Parameters: scale not given: in the data most compounds retested in dose-response had high values
- Assay conditions: 33.3 µM
One number for each entry, in %.

Previously resolved entries follow.
Q: # query: Percent Effect of entry "COc1cc(CNCc2c(C(C)C)nn(C)c2N(C)C)ccn1"
A: -3.06

Q: # query: Percent Effect of entry "CCN(CC)C(=O)c1nnn(Cc2ccccc2)c1OC"
A: -4.05

Q: # query: Percent Effect of entry CC(C(=O)N1CCc2ccccc2C1)n1cc(Br)cn1 (stereo unspecified)
A: -6.9

Q: # query: Percent Effect of entry CC(=O)N1CC(=O)N(c2ccccc2)CC12CCN(Cc1nccs1)C2 (stereo unspecified)
A: -54.3

Q: # query: Percent Effect of entry "COc1ccc(OCCNCCn2cccn2)cc1"
A: 7.1

Shifting focus to the compound that follows.
Q: # query: Percent Effect of entry "O=C(Nc1ccccc1)N1CCn2nnc(COc3cccnc3)c2C1"
A: 4.86

###

For each of the compounds below, state its Percent Effect.
- Tgt: Chromo domain-containing protein 1 (Saccharomyces cerevisiae (strain ATCC 204508 / S288c) (Baker's yeast))
- Assay comment: ScCHD-1 Enzyme Inhibition Assay
- Assay type: functional
- Design: scale not given: in the data most compounds retested in dose-response had high values
- Assay conditions: 30 µM
Quick note: unit goes after the number.

Q: # query: Percent Effect of entry "Cc1ccc(S(=O)(=O)NC(=O)c2cccc3c2OCCO3)c(C)c1"
A: -2.7%

Q: # query: Percent Effect of entry COc1ncccc1NC(=O)NCC1CCS(=O)(=O)C1 (configuration not stated)
A: -8.21%

Q: # query: Percent Effect of entry CCC1CN(CCNC(C)=O)CCN1CCOC (configuration not stated)
A: -5.61%

Q: # query: Percent Effect of entry Cc1ccc2oc(C(=O)N3CCCC(c4noc(C)n4)C3)cc2n1 (configuration not stated)
A: -2.57%

Q: # query: Percent Effect of entry "CCNC(=O)CCc1c(C)nc2cc(O)nn2c1C"
A: -8.86%

List the reported Percent Effect of each compound below.
1. Cc1nn(C)c(N(C)C)c1CNCc1ccc(OCC(N)=O)cc1
2. Cc1cc(C)n(C2CCCN(C(=O)Cc3csc(C)n3)C2)n1 (configuration not stated)
3. O=C1CCSCC(C(=O)N2CCN(C3CCCCC3)CC2)N1 (configuration not stated)
4. Cc1n[nH]c(C(=O)NCc2ccnc(OCC(F)(F)F)c2)c1Br
5. COc1cccc(-c2noc(C3CCN(Cc4cn(C)nc4C)C3)n2)c1 (configuration not stated)
6. O=C(NCCNc1ncccn1)N(Cc1ccc(F)cc1F)C1CC1
7. CC(C)CN1C[C@@H]2CN(C(=O)[C@H]3CCCO3)C[C@@H]2C1=O

A:
1: -13.9%; 2: -6.83%; 3: -0.805%; 4: -11.1%; 5: -24.7%; 6: -3.1%; 7: -5.7%

###

- Tgt: Tyrosyl-tRNA synthetase, putative (Trypanosoma cruzi (strain CL Brener))
- Assay comment: Trypanosoma cruzi tyrosyl tRNA synthetase (TcYRS) _High Tyrosine SOP
- Type: functional
- Design: scale not given: in the data most compounds retested in dose-response had high values
- Assay conditions: 30 µM
Parameter: Percent Effect

Q: # query: Percent Effect of entry CCc1n[nH]c(C2CN(C(=O)c3ccsc3)CCO2)n1 (stereo not drawn)
A: -2.86%

Q: # query: Percent Effect of entry "COCCC(=O)N1CC2(CCN(Cc3ccoc3)C2)C1"
A: 4.25%

Q: # query: Percent Effect of entry CSc1ccc(Cl)c(C(=O)N2CCCC(CNS(C)(=O)=O)C2)c1 (stereo not drawn)
A: 1.96%

Q: # query: Percent Effect of entry Cc1nnc(NC(=O)CN2CCCC(Cn3cncn3)C2)s1 (stereo not drawn)
A: 5.79%

Q: # query: Percent Effect of entry "Cc1nc(N2CCN(C(=O)C(C)(C)C)CC2)cc(-n2cnc(C)c2C)n1"
A: 3.23%

List the reported Percent Effect of each compound below.
1. CCOc1ccc(S(=O)(=O)NC(=O)CCC2CCCO2)cc1 (stereo not drawn)
2. O=C(CO)N1C[C@H]2CC[C@@H]1CN(C1Cc3ccccc3C1)C2
3. O=C(NCc1ccco1)[C@@]12CCO[C@@H]1CCN(CCN1CCCC1)C2
4. CCOc1ccc(Cl)c(C(=O)N2CCN(C(=O)c3ccoc3C)CC2)n1
5. Cc1csc(N2CCN(Cc3cnc(C)s3)CC2C)n1 (stereo not drawn)
6. CCn1cnnc1CNC(=O)N1CCOCC1

A:
["10.3%", "1.07%", "6.25%", "7.77%", "5.38%", "2.63%"]

List the reported Percent Effect of each compound below.
1. CCC(NC(=O)C1CCN(S(=O)(=O)N(C)C)CC1)c1ccc(C)c(C)c1 (stereo not drawn)
2. Cc1cc(NCc2cc3n(n2)CCCN(C(=O)N(C)C)C3)ncn1
3. Cc1cc(-c2nn(C)c(Cl)c2CN2CCOCC2CC(=O)O)no1 (stereo not drawn)
4. CCN(CC)CCNc1ncc(-c2cc(C)no2)c(-c2ccoc2C)n1

A:
-2.15%
1.6%
7.98%
5.38%
